Provenance of the data: BindingDB's records for doi:10.1016/j.bmcl.2003.09.069

- Method: Inhibitory activity against cellular Src protein tyrosine kinase using the actin ring assay
Measure name: pIC50
Please note pIC50 is a logarithmic value: minus log10 of concentration in mol/L. Answer with that number alone.

What pIC50 value was documented for this compound, `CNS(=O)(=O)c1ccc2c(c1)/C(=C/c1[nH]c3c(c1CCCN1CCC(O)CC1)CCCC3)C(=O)N2` ?
6.05

What pIC50 value was documented for this compound, `CCOC(=O)CN1CCN(CCCc2c(/C=C3\C(=O)Nc4ccc(S(=O)(=O)NC)cc43)[nH]c3c2CCCC3)CC1` ?
6.05

What pIC50 value was documented for this compound, `CCS(=O)(=O)c1ccc2c(c1)/C(=C/c1[nH]c3c(c1CCCN1CCN(CC(=O)O)CC1)CCCC3)C(=O)N2` ?
5.00

What pIC50 value was documented for this compound, `CNS(=O)(=O)c1ccc2c(c1)/C(=C/c1[nH]c3c(c1CN1CCOCC1)CCCC3)C(=O)N2` ?
6.00

What pIC50 value was documented for this compound, `CNS(=O)(=O)c1ccc2c(c1)/C(=C/c1[nH]c3c(c1CCCN1CCN(C)CC1)CCCC3)C(=O)N2` ?
7.00

* * *

- Method: Inhibitory activity against cellular Src protein tyrosine kinase using the actin ring assay
Measure name: pIC50
Please note pIC50 is a logarithmic value: minus log10 of concentration in mol/L. Answer with that number alone.

What pIC50 value was documented for this molecule, `CCS(=O)(=O)c1ccc2c(c1)/C(=C/c1[nH]c3c(c1CN1CCOCC1)CCCC3)C(=O)N2` ?
5.30

What pIC50 value was documented for this molecule, `CNS(=O)(=O)c1ccc2c(c1)/C(=C/c1[nH]c3c(c1CCCN1CCOCC1)CCCC3)C(=O)N2` ?
7.00

What pIC50 value was documented for this molecule, `CCS(=O)(=O)c1ccc2c(c1)/C(=C/c1[nH]c3c(c1CCCN(C)C)CCCC3)C(=O)N2` ?
6.30

What pIC50 value was documented for this molecule, `CCS(=O)(=O)c1ccc2c(c1)/C(=C/c1[nH]c3c(c1CCCN1CCC(O)CC1)CCCC3)C(=O)N2` ?
6.10

What pIC50 value was documented for this molecule, `CNS(=O)(=O)c1ccc2c(c1)/C(=C/c1[nH]c3c(c1CCCN1CCN(CCO)CC1)CCCC3)C(=O)N2` ?
5.52

What pIC50 value was documented for this molecule, `CCS(=O)(=O)c1ccc2c(c1)/C(=C/c1[nH]c3c(c1CCCN1CCN(CCO)CC1)CCCC3)C(=O)N2` ?
5.77
